Tested on: JIMT-1 cells
ASSAY_OVERVIEW: Cell viability of KIF18a-sensitive cell lines, JIMT-1 (Cell Titre-Glo, 7 days)
Assay type: cell-based
STUDY_CONDITIONS: Homo sapiens, 168 h; JIMT-1, 7 days; read-out: JIMT-1 IC50
QUANTITY_NAME: pIC50
Field pIC50 (float): negative decimal logarithm of the concentration in molar.

For orientation, consider the following solved cases.
{"COMPOUND": "CS(=O)(=O)Nc1ccc(-n2cc(-c3cccc(S(=O)(=O)N4CC(F)(F)C4)c3)nn2)c(N2CCC3(CC2)CC3)c1", "pIC50": 8.33}
{"COMPOUND": "O=S(=O)(CCO)Nc1ccc(-n2cc(-c3cccc(OC4CCCC4)n3)nn2)c(N2CCC3(CC2)CC3)c1", "pIC50": 7.22}
{"COMPOUND": "Cc1cc(-c2cn(-c3ccc(NS(=O)(=O)CCO)cc3N3CCC4(CC3)CC4)nn2)nc(N2CCCCC2)n1", "pIC50": 7.57}
{"COMPOUND": "Cc1cc(-n2cc(-c3ccc(NS(=O)(=O)CCO)cc3N3CCC4(CC3)CC4)nn2)nc(N2CCC(F)(F)CC2)n1", "pIC50": 7.05}

Return the recorded pIC50 value; entry: `CCS(=O)(=O)Nc1cc(N2CCC3(CC2)CC3)c(-n2cc(-c3cccc(S(=O)(=O)NC(C)(C)C)c3)nn2)cc1F`
7.85

Return the recorded pIC50 value; entry: `Cc1cc(-c2cn(-c3ccc(NS(=O)(=O)CCO)cc3N3CCCCC3)nn2)nc(N2CCC(F)(F)CC2)c1`
7.52

Return the recorded pIC50 value; entry: `O=S(=O)(CCO)Nc1ccc(-n2cc(-c3csc(N4CCC(F)(F)CC4)n3)nn2)c(N2CCC3(CC2)CC3)c1`
7.42
